Assay: AlphaScreen signal interference compounds, dose response, artefact control for ARNT-TACC3 interaction inhibitor project, biochemical, luminescence, cherry-pick (AID 651705)
Details: His-ARNT PASB-GST AlphaScreen artifact counter-screen; series mostly up to 68 µM
About 620 (52%) of roughly 1,200 compounds were called active.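 The calls were made as follows: active = every separate test run was called active for a drop in luminescence, with AC50 within twice the top valid dose (actives reach about 71 µM in these data); inconclusive = the separate test runs disagree in their calls; inactive = all runs inactive, including signal change in the wrong direction.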 So high a share suggests a set chosen from earlier hits. The list is a sample of the results.
Outcome codes: yes for active, no for inactive

{"MOLECULE": "c1ccc(-c2nnc(-c3ccccn3)nc2Nc2nc3ccccc3s2)cc1", "ASSIGNED LABEL": "yes"}
{"MOLECULE": "CCn1cc(/C=C2/SC(=S)NC2=O)c(C)n1", "ASSIGNED LABEL": "no"}
{"MOLECULE": "CC(=O)/C(=N\\Nc1ccc(Cl)cc1Cl)Sc1cccc2cccnc12", "ASSIGNED LABEL": "yes"}
{"MOLECULE": "Oc1ccc(Br)cc1/C=N/Nc1ccccn1", "ASSIGNED LABEL": "yes"}
{"MOLECULE": "Cc1ccccc1CSc1nnc(-c2ccccn2)n1N", "ASSIGNED LABEL": "no"}
{"MOLECULE": "Cc1c(NC(=O)CSc2cccc3cccnc23)c(=O)n(-c2ccccc2)n1C", "ASSIGNED LABEL": "yes"}
{"MOLECULE": "COC(=O)CC1=NN(c2nc(C)cc(C)n2)C(=O)C1", "ASSIGNED LABEL": "no"}
{"MOLECULE": "CCN(CC)c1ccc(/C=N/NC(=O)c2cnccn2)c(O)c1", "ASSIGNED LABEL": "no"}
{"MOLECULE": "CC(C(=O)Nc1ccc(O)c(C(=O)O)c1)N1C(=O)/C(=C/c2cccs2)SC1=S (stereo not given)", "ASSIGNED LABEL": "no"}
{"MOLECULE": "c1ccc(-c2cn3c(n2)CCc2ccc4cccnc4c2-3)cc1", "ASSIGNED LABEL": "no"}
